# target-or-test-system: Endoplasmic reticulum chaperone BiP (Homo sapiens) (UniProt P11021)
# Sequence (P11021 whole entry, the tested form may be a part): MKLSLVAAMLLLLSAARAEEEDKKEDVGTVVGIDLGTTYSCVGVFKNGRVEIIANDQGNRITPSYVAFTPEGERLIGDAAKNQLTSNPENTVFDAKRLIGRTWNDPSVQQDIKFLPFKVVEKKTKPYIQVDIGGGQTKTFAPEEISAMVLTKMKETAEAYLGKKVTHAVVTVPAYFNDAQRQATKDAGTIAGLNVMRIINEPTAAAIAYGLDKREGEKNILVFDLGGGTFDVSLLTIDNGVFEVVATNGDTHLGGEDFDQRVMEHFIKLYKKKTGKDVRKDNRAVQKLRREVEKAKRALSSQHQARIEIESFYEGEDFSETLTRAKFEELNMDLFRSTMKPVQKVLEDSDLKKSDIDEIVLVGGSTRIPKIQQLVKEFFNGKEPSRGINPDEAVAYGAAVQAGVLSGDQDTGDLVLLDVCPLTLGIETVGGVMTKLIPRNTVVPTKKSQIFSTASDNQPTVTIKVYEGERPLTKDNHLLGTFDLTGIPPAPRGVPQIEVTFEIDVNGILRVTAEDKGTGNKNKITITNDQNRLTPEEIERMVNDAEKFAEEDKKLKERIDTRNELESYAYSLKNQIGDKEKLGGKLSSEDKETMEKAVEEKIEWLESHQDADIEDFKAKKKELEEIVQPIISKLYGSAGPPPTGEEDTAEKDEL
# protocol-summary: Inhibition of GRP78 (26 to 636 residues) (unknown origin) expressed in Escherichia coli BL21 DE3 cells pre-incubated for 10 mins before FITC-NRLLLTG fluorescent peptide addition in presence of 20 uM ADP followed by further incubation for 2 hrs by fluorescence polarization assay
Activity calls are given as the source filed them. No cut-off for these calls is given here.
endpoint-name: inhibition

- Oc1c(Cl)cc(Cl)cc1Sc1cc(Cl)cc(Cl)c1O: Active
- Oc1c(Cl)cc(Cl)c(Cl)c1Sc1c(O)c(Cl)cc(Cl)c1Cl: Active
- Oc1c(Cl)cc(Cl)cc1Cc1cc(Cl)cc(Cl)c1O: Active
